system: PDC KRAS tumor spheroids with HUVEC/MSC, viability; assay: Anticancer human tumor 349418-098-R-PDC patient-derived lung adenocarcinoma cell line growth inhibition [KRAS2]; conditions: second compound 3.16 µM; first compound 0.1 µM; active = viability on the fitted dose curve at most 10% of control; inactive = the rest;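 also: spheroids exposed to compounds for seven days before readout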
Give one outcome, nothing more. List: yes (1) = active, no (0) = inactive

| compound | class-label |
| --- | --- |
| Cn1nccc1Nc1nccc(-c2cc3c(s2)C(C)(C)N(CCN2CCOCC2)C3=O)n1 + CC1OCC2(CCN(c3cnc(Sc4ccnc(N)c4Cl)c(N)n3)CC2)C1N | no (0) |

Test call, this compound: CC(C)n1nc(-c2ccc3oc(N)nc3c2)c2c(N)ncnc21 + C=CC(=O)N1CCN(c2nc(OCC3CCCN3C)nc3c2CCN(c2cccc4cccc(C)c24)C3)CC1CC#N yes (1)

Could you check what this test reported for CC(=O)OC12COC1CC(O)C1(C)C(=O)C(O)C3=C(C)C(OC(=O)C(O)C(NC(=O)OC(C)(C)C)c4ccccc4)CC(O)(C(OC(=O)c4ccccc4)C21)C3(C)C (stereo not drawn) + C=CC(=O)N1CCN(c2nc(OCC3CCCN3C)nc3c2CCN(c2cccc4cccc(C)c24)C3)CC1CC#N ? no (0)
